Experiment: Inhibition of PI3Kdelta in B-cells by proliferation assay
measurementName: pIC50
Please treat pIC50 as minus the base-10 logarithm of the molar concentration.

Quick one: give measured pIC50 for Cc1cccc2nc(-c3ccccc3Cl)c(Cn3nc(C#N)c4c(N)ncnc43)nc12
8.70

Quick one: give measured pIC50 for C[C@H](Nc1ncnc2nc[nH]c12)c1cc2cccc(Cl)c2nc1-c1cscn1
9.30
